# Measured Target: μ-opioid receptor (MOR) (Rattus norvegicus, UniProt P33535)
# Sequence (P33535 whole entry): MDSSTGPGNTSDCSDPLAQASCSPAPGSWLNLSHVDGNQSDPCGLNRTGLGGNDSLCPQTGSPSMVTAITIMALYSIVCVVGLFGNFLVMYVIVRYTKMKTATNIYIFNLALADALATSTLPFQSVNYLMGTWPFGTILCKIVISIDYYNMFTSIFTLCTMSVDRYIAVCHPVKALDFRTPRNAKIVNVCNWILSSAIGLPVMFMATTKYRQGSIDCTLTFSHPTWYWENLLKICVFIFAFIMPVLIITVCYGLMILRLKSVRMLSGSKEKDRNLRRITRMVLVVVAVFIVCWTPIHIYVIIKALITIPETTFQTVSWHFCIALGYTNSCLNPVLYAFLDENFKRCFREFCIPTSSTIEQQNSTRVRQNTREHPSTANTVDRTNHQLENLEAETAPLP
# Assay Name: biochemical
# Experimental Conditions: initial screening, 10 μM
Observed Property: % of radioligand specific binding at 10 μM, mean (%)
Write it as a number; the unit % goes unstated.

Would you please look over these solved cases?
Compound: CC(C)C[C@H](NC(=O)[C@@H]1Cc2ccc(O)c(c2)-c2cc(ccc2O)C[C@H](N)C(=O)NCC(=O)NCC(=O)N1)C(N)=O [c-(Tyr-m-Tyr-m)-L-NH2, H-(cyclo-m,m)-[Tyr-Gly-Gly-Tyr]-Leu-NH2]
Recorded Result: 102

Compound: CSCC[C@H](NC(=O)[C@@H]1Cc2ccc(cc2)-c2cc(ccc2O)C[C@H](N)C(=O)NCC(=O)NCC(=O)N1)C(N)=O [c-(Tyr-m-Phe-p)-M-NH2, H-(cyclo-m,p)-[Tyr-Gly-Gly-Phe]-Met-NH2]
Recorded Result: 34

Compound: CC(C)C[C@H](NC(=O)[C@@H]1Cc2cccc(c2)-c2cc(ccc2O)C[C@H](N)C(=O)NCC(=O)NCC(=O)N1)C(N)=O [c-(Tyr-m-Phe-m)-L-NH2, H-(cyclo-m,m)-[Tyr-Gly-Gly-Phe]-Leu-NH2]
Recorded Result: 28

Compound: CC(C)C[C@H](NC(=O)[C@@H]1Cc2ccc(cc2)-c2ccc(cc2)C[C@H](N)C(=O)NCC(=O)NCC(=O)N1)C(N)=O [c-(Phe-p-Phe-p)-L-NH2, H-(cyclo-p,p)-[Phe-Gly-Gly-Phe]-Leu-NH2]
Recorded Result: 78

Now examine the next entry.
Request: What is its % of radioligand specific binding at 10 μM, mean for μ-opioid receptor (MOR) (Rattus norvegicus, UniProt P33535)? Entry: CC(C)C[C@H](NC(=O)[C@@H]1Cc2ccc(cc2)-c2cc(ccc2O)C[C@H](N)C(=O)NCC(=O)NCC(=O)N1)C(N)=O [c-(Tyr-m-Phe-p)-L-NH2, H-(cyclo-m,p)-[Tyr-Gly-Gly-Phe]-Leu-NH2]
Response: 78

====

# Measured Target: μ-opioid receptor (MOR) (Rattus norvegicus)
# Assay Name: biochemical
# Experimental Conditions: 30 μM of ligand; mean and standard deviation; [3H]DAMGO
Reported values of Radioligand SB at 30 μM of ligand (% of radioligand specific binding) for individual entries
Write it as a number; the unit % goes unstated.

Would you please look over these solved cases?
Compound: CC(C)C[C@H](NC(=O)[C@@H]1Cc2ccc(cc2)-c2ccc(cc2)C[C@H](N)C(=O)NCC(=O)NCC(=O)N1)C(N)=O [c-(Phe-p-Phe-p)-L-NH2, H-(cyclo-p,p)-[Phe-Gly-Gly-Phe]-Leu-NH2]
Measured Target: μ-opioid receptor (MOR) (Rattus norvegicus)
Recorded Result: 73
--
Compound: CSCC[C@H](NC(=O)[C@@H]1Cc2ccc(cc2)-c2cc(ccc2O)C[C@H](N)C(=O)NCC(=O)NCC(=O)N1)C(N)=O [c-(Tyr-m-Phe-p)-M-NH2, H-(cyclo-m,p)-[Tyr-Gly-Gly-Phe]-Met-NH2]
Measured Target: μ-opioid receptor (MOR) (Rattus norvegicus)
Recorded Result: 12

Request: Suppose we examine the compound CC(C)C[C@H](NC(=O)[C@@H]1Cc2ccc(cc2)-c2cc(ccc2O)C[C@H](N)C(=O)NCC(=O)NCC(=O)N1)C(N)=O [c-(Tyr-m-Phe-p)-L-NH2, H-(cyclo-m,p)-[Tyr-Gly-Gly-Phe]-Leu-NH2] ; what Radioligand SB at 30 μM of ligand (% of radioligand specific binding) value has been reported?
Response: 77

Request: Suppose we examine the compound CC(C)C[C@H](NC(=O)[C@@H]1Cc2cccc(c2)-c2cc(ccc2O)C[C@H](N)C(=O)NCC(=O)NCC(=O)N1)C(N)=O [c-(Tyr-m-Phe-m)-L-NH2, H-(cyclo-m,m)-[Tyr-Gly-Gly-Phe]-Leu-NH2] ; what Radioligand SB at 30 μM of ligand (% of radioligand specific binding) value has been reported?
Response: 12

Request: Suppose we examine the compound CC(C)C[C@H](NC(=O)[C@@H]1Cc2ccc(O)c(c2)-c2ccc(cc2)C[C@H](N)C(=O)NCC(=O)NCC(=O)N1)C(N)=O [c-(Phe-p-Tyr-m)-L-NH2, H-(cyclo-p,m)-[Phe-Gly-Gly-Tyr]-Leu-NH2] ; what Radioligand SB at 30 μM of ligand (% of radioligand specific binding) value has been reported?
Response: 17

Request: Suppose we examine the compound CC(C)C[C@H](NC(=O)[C@@H]1Cc2ccc(O)c(c2)-c2cc(ccc2O)C[C@H](N)C(=O)NCC(=O)NCC(=O)N1)C(N)=O [c-(Tyr-m-Tyr-m)-L-NH2, H-(cyclo-m,m)-[Tyr-Gly-Gly-Tyr]-Leu-NH2] ; what Radioligand SB at 30 μM of ligand (% of radioligand specific binding) value has been reported?
Response: 117
